Exercise: state measured δD (dispersion solubility parameter) for each of the molecules provided.
Assay: Hansen solubility parameters (HSP) from rated solvent library, optimized in HSPiP; Ra and RED versus water
Type: physicochemical
Details: experimentally rated solvent library, HSPiP

Some solved entries appear below for comparison.
{"smiles-representation": "c1cncc(-c2nc3c4cccnc4c4ncccc4c3o2)c1", "δD (dispersion solubility parameter)": "18.3 (MPa)^0.5"}
{"smiles-representation": "c1ccc(-c2nc3c4ccccc4c4ccccc4c3o2)cc1", "δD (dispersion solubility parameter)": "19.5 (MPa)^0.5"}
{"smiles-representation": "c1cncc(-c2nc3c4cccnc4c4ncccc4c3[nH]2)c1", "δD (dispersion solubility parameter)": "16.4 (MPa)^0.5"}
{"smiles-representation": "c1ccc(-c2nc3c4cccnc4c4ncccc4c3[nH]2)cc1", "δD (dispersion solubility parameter)": "17.9 (MPa)^0.5"}
{"smiles-representation": "c1ccc(-c2nc3c4cccnc4c4ncccc4c3o2)nc1", "δD (dispersion solubility parameter)": "19.4 (MPa)^0.5"}
{"smiles-representation": "c1ccc(-c2nc3c4cccnc4c4ncccc4c3o2)cc1", "δD (dispersion solubility parameter)": "18.6 (MPa)^0.5"}

Now for the molecule whose δD (dispersion solubility parameter) we want.
c1ccc(-c2nc3c4ccccc4c4ccccc4c3[nH]2)cc1 yielded δD (dispersion solubility parameter) of 18.5 (MPa)^0.5
